Subject Of Test: HLA-A*11:01
Assay Details: IEDB peptide-MHC binding, purified MHC/direct/fluorescence; filed as Kd, often an IC50 or EC50 that approximates it; bounds were set here for any values at or beyond the usual limits of such assays
Experimental Conditions: source organism: Vibrio parahaemolyticus
pKd: −log10 of the molar value.
Reported Metric: pKd

Request: GET /values?readout=pKd&system=HLA-A*11:01&item= "AYYWNQNGF"
Response: ≤ 4.70

* * *

Can you tell me Kd for the items I'm about to list?
Subject Of Test: HLA-B*15:01
Assay Details: IEDB peptide-MHC binding, purified MHC/competitive/radioactivity; filed as Kd, often an IC50 or EC50 that approximates it; bounds were set here for any values at or beyond the usual limits of such assays
Experimental Conditions: source organism: Dengue virus 1 Brazil/97-11/1997
Field: numeric (nM). Do not append units.

Request: GET /values?readout=Kd&system=HLA-B*15:01&item= "VLTGGVTLFF"
Response: 194

Request: How about this sequence: "KQERGKSLLF"
Response: 118
